Assay: Selectivity index, ratio of CC50 for cytotoxicity against Balb/c mouse peritoneal macrophages to IC50 for antileishmanial activity against Leishmania amazonensis MHOM/BR/77/LTB0016 promastigotes
Format: toxicity
Settings: read-out: Ratio CC50/IC50
attribute-measured: selectivity ratio
API doc: respond with a numeric literal and nothing else, no unit.

Find the recorded selectivity ratio belonging to Cc1ccc(CC2(C)CC(S(=O)(=O)c3ccc(F)cc3)=C(c3ccc(/C(N)=N/O)cc3)O2)cc1 (centres undefined) and report it.
2.3

Can you check CCC1(CC)CC(S(=O)(=O)c2ccc(F)cc2)=C(c2ccc(/C(N)=N/O)cc2)O1 next?
3

Moving on to CC1(Cc2cccc([N+](=O)[O-])c2)CC(S(=O)(=O)c2ccc(F)cc2)=C(c2ccc(/C(N)=N/O)cc2)O1 (centres undefined)
7.5
